Target: human recombinant Aurora B (Homo sapiens (Human), UniProt Q96GD4)
Sequence (Q96GD4 whole entry): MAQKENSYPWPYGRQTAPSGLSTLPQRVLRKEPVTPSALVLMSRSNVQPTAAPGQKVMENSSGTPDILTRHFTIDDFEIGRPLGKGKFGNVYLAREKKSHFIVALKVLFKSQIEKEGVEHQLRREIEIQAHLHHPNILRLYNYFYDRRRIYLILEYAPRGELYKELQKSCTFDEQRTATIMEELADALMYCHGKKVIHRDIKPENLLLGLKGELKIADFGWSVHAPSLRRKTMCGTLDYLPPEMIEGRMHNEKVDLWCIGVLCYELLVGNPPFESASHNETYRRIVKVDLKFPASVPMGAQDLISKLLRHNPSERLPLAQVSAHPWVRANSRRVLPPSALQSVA
Assay: Aurora B Kinase Biochemical Assay (ADP-Glo)
Conditions: ratio of Aurora B IC50 to PLK4 IC50 (selectivity)
Reported [Aurora B IC50 (nM)]/[PLK4 IC50 (nM)] is given for each of the following compounds.

Recall the recorded [Aurora B IC50 (nM)]/[PLK4 IC50 (nM)] for COc1ccc2c(c1)[C@]1(C[C@H]1c1ccc3c(Nc4ncc(C5CS(=O)(=O)C5)nc4OC)n[nH]c3c1)C(=O)N2 [Example 254] with human recombinant Aurora B (Homo sapiens (Human), UniProt Q96GD4) and state it.
96.18

And COc1ccc2c(c1)[C@]1(C[C@H]1c1ccc3c(Nc4ncc(S(=O)(=O)N5CCOCC5)cc4OC)n[nH]c3c1)C(=O)N2 [Example 255] ?
566.4948

And COc1ccc2c(c1)[C@]1(C[C@H]1c1cc(F)c3c(Nc4nc(SC)ncc4OC)n[nH]c3c1)C(=O)N2 [Example 186] ?
232.5464

And COc1ccc2c(c1)[C@]1(C[C@H]1c1ccc3c(Nc4nc(N5CCC(F)(F)C5)ncc4OC)n[nH]c3c1)C(=O)N2 [Example 170] ?
587.9234

And COc1ccc2c(c1)[C@]1(C[C@H]1c1ccc3c(Nc4ccc(C(=O)N5CCC(F)(F)CC5)nc4OC)n[nH]c3c1)C(=O)N2 [Example 185] ?
180.1636

And CCOc1cc(S(=O)(=O)N2CCN(C)CC2)cnc1Nc1n[nH]c2cc([C@@H]3C[C@@]34C(=O)Nc3ccc(OC)cc34)ccc12 [Example 273] ?
2831.3833
